- TARGET: Multidrug resistance-associated protein 1 (Homo sapiens, UniProt P33527)
- Sequence (P33527 whole entry): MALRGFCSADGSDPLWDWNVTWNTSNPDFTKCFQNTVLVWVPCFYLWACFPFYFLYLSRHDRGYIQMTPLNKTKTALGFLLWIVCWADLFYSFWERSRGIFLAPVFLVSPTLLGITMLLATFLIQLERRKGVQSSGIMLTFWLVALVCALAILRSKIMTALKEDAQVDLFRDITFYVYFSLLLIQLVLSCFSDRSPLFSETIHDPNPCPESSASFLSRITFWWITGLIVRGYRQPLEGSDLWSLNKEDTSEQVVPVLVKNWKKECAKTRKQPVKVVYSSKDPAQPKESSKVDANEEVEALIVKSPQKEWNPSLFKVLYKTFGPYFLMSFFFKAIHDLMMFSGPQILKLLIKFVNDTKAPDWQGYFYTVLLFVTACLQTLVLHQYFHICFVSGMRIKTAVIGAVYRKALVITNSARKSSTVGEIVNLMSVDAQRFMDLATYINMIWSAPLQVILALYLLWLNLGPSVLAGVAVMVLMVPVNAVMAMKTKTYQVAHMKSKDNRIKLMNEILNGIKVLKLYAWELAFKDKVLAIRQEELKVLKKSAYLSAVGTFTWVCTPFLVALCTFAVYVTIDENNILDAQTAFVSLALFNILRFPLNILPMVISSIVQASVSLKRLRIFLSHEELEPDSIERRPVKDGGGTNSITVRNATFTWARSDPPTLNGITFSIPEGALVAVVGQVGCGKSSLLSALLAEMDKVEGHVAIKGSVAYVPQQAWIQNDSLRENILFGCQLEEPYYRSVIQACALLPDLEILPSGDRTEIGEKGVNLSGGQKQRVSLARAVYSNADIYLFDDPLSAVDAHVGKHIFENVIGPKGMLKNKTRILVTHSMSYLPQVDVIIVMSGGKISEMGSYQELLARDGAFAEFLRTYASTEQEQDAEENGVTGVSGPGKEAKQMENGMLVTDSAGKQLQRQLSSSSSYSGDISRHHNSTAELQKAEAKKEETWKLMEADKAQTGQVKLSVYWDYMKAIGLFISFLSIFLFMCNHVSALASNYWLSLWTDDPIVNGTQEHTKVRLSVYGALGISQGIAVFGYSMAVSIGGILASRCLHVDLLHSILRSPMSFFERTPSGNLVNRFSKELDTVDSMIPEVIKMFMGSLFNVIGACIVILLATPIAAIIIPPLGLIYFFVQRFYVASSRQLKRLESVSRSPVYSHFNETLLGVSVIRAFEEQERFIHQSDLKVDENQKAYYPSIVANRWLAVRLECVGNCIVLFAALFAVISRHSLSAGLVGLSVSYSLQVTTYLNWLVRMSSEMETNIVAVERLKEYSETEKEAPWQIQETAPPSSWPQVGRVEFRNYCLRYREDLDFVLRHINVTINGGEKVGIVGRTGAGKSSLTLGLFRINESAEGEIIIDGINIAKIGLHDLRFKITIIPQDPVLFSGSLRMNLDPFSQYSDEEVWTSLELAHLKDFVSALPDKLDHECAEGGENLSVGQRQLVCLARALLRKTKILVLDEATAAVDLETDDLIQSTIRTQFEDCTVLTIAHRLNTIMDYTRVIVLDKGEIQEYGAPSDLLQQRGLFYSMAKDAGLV
- ASSAY_INFO: TP_TRANSPORTER: inhibition of DNR transport in HL60/MRP cells
- Format: functional, cell-based
# pIC50 per record follows
Reminder that pIC50 means the negative base-10 logarithm of the concentration expressed in mol/L.

Known pIC50 results, listed for orientation:
{"COMPOUND": "COc1cc2c(c(OC)c1OC)-c1c(cc(OC)c(OC)c1OC)C[C@](C)(O)[C@@H](C)C2", "TARGET": "Multidrug resistance-associated protein 1 (Homo sapiens, UniProt P33527)", "pIC50": 6.66}
{"COMPOUND": "COc1cc2c(c(OC)c1OC)-c1c(cc3c(c1OC)OCO3)CC(C)C(C)C2 (centres undefined)", "TARGET": "Multidrug resistance-associated protein 1 (Homo sapiens, UniProt P33527)", "pIC50": 6.69}
{"COMPOUND": "COc1cc2c(c(OC)c1OC)-c1c(cc3c(c1OC)OCO3)C[C@H](C)[C@@](C)(O)C2", "TARGET": "Multidrug resistance-associated protein 1 (Homo sapiens, UniProt P33527)", "pIC50": 6.74}

From here, focus on the item given below.
API: value(readout=pIC50, system=Multidrug resistance-associated protein 1 (Homo sapiens, UniProt P33527)) for record `COc1cc2c(c(OC)c1OC)-c1c(cc(OC)c(OC)c1OC)C[C@H](C)[C@H](C)C2`
6.81

---

- TARGET: Multidrug resistance-associated protein 1 (Homo sapiens, UniProt P33527)
- ASSAY_INFO: TP_TRANSPORTER: inhibition of VP-16 transport in HL60/ADR cells (overexpression of MRP1)
- Assay type: functional, cell-based
Each entry below carries its reported pIC50.
Scale: negative log10 of molar concentration, which is what pIC50 denotes.

Provide the documented pIC50 with Multidrug resistance-associated protein 1 (Homo sapiens, UniProt P33527) as the system for COc1cc2c(c(OC)c1OC)-c1c(cc(OC)c(OC)c1OC)C[C@](C)(O)[C@@H](C)C2 [SCHIZANDRIN]
5.14

Now consider COc1cc2c(c(OC)c1OC)-c1c(cc3c(c1OC)OCO3)C[C@H](C)[C@@](C)(O)C2 [GOMISIN A] .
5.11

Now try COc1cc2c(c(OC)c1OC)-c1c(cc3c(c1OC)OCO3)CC(C)C(C)C2 (centres undefined) [SCHISANDRIN B] .
5.38

Another compound to check: COc1cc2c(c(OC)c1OC)-c1c(cc(OC)c(OC)c1OC)C[C@H](C)[C@H](C)C2 [SCHISANDRIN A]
5.31

---

- TARGET: Multidrug resistance-associated protein 1 (Homo sapiens, UniProt P33527)
- ASSAY_INFO: TP_TRANSPORTER: inhibition of VP-16 transport in HL60/MRP cells
- Assay type: functional, cell-based
PARAMETER: IC50 (nM)
State just the number; it will be interpreted in nM.

{"COMPOUND": "COc1cc2c(c(OC)c1OC)-c1c(cc(OC)c(OC)c1OC)C[C@](C)(O)[C@@H](C)C2", "PARAMETER": "IC50", "OBS_VALUE": 3240}

Look at this compound and give its reported IC50. `COc1cc2c(c(OC)c1OC)-c1c(cc(OC)c(OC)c1OC)C[C@H](C)[C@H](C)C2`
2340

Now the same for `COc1cc2c(c(OC)c1OC)-c1c(cc3c(c1OC)OCO3)C[C@H](C)[C@@](C)(O)C2`
2760

Another compound to look at: COc1cc2c(c(OC)c1OC)-c1c(cc3c(c1OC)OCO3)CC(C)C(C)C2 (centres undefined)
2250

---

- TARGET: Multidrug resistance-associated protein 1 (Homo sapiens, UniProt P33527)
- ASSAY_INFO: TP_TRANSPORTER: inhibition of VCR transport in HL60/ADR cells (overexpression of MRP1)
- Type: functional, cell-based
List of IC50 values.
API: value field is a number in nM; no unit string.

# annotated cases, reported IC50 shown
{"COMPOUND": "COc1cc2c(c(OC)c1OC)-c1c(cc(OC)c(OC)c1OC)C[C@H](C)[C@H](C)C2", "TARGET": "Multidrug resistance-associated protein 1 (Homo sapiens, UniProt P33527)", "IC50 [nM]": 9.84}
{"COMPOUND": "COc1cc2c(c(OC)c1OC)-c1c(cc3c(c1OC)OCO3)C[C@H](C)[C@@](C)(O)C2", "TARGET": "Multidrug resistance-associated protein 1 (Homo sapiens, UniProt P33527)", "IC50 [nM]": 0.96}
{"COMPOUND": "COc1cc2c(c(OC)c1OC)-c1c(cc(OC)c(OC)c1OC)C[C@](C)(O)[C@@H](C)C2", "TARGET": "Multidrug resistance-associated protein 1 (Homo sapiens, UniProt P33527)", "IC50 [nM]": 1.16}

Consider the additional compound presented here.
Returns the measured IC50 for the input compound. Input: COc1cc2c(c(OC)c1OC)-c1c(cc3c(c1OC)OCO3)CC(C)C(C)C2 (centres undefined)
1.25

---

Below is a list of entries, each paired with its recorded IC50 value.
- TARGET: Multidrug resistance-associated protein 1 (Homo sapiens)
- ASSAY_INFO: TP_TRANSPORTER: inhibition of VCR transport in HL60/MRP cells
- Type: functional, cell-based

// known answers, use as guide
{"COMPOUND": "COc1cc2c(c(OC)c1OC)-c1c(cc3c(c1OC)OCO3)C[C@H](C)[C@@](C)(O)C2", "OBS_VALUE": "9.36 nM"}
{"COMPOUND": "COc1cc2c(c(OC)c1OC)-c1c(cc(OC)c(OC)c1OC)C[C@H](C)[C@H](C)C2", "OBS_VALUE": "6.96 nM"}
{"COMPOUND": "COc1cc2c(c(OC)c1OC)-c1c(cc3c(c1OC)OCO3)CC(C)C(C)C2 (centres undefined)", "OBS_VALUE": "9.49 nM"}

--- query ---
Request body: readout IC50, system Multidrug resistance-associated protein 1 (Homo sapiens), query `COc1cc2c(c(OC)c1OC)-c1c(cc(OC)c(OC)c1OC)C[C@](C)(O)[C@@H](C)C2` . Return the value.
8.09 nM

---

- TARGET: Multidrug resistance-associated protein 1 (Homo sapiens, UniProt P33527)
- ASSAY_INFO: TP_TRANSPORTER: inhibition of DNR transport in HL60/ADR cells (overexpression of MRP1)
- Assay type: functional, cell-based
A collection of compounds and their measured IC50
// unit must come after the numeric part

{"COMPOUND": "COc1cc2c(c(OC)c1OC)-c1c(cc3c(c1OC)OCO3)C[C@H](C)[C@@](C)(O)C2 [GOMISIN A]", "TARGET": "Multidrug resistance-associated protein 1 (Homo sapiens, UniProt P33527)", "IC50": "122 nM"}
{"COMPOUND": "COc1cc2c(c(OC)c1OC)-c1c(cc3c(c1OC)OCO3)CC(C)C(C)C2 (centres undefined) [SCHISANDRIN B]", "TARGET": "Multidrug resistance-associated protein 1 (Homo sapiens, UniProt P33527)", "IC50": "140 nM"}
{"COMPOUND": "COc1cc2c(c(OC)c1OC)-c1c(cc(OC)c(OC)c1OC)C[C@H](C)[C@H](C)C2 [SCHISANDRIN A]", "TARGET": "Multidrug resistance-associated protein 1 (Homo sapiens, UniProt P33527)", "IC50": "142 nM"}

Now turn to the next compound.
GET /values?readout=IC50&item= COc1cc2c(c(OC)c1OC)-c1c(cc(OC)c(OC)c1OC)C[C@](C)(O)[C@@H](C)C2 [SCHIZANDRIN]
125 nM
